- Tested on: RPMI-8226
- measurement protocol: NCI tumour cell line growth inhibition, 48 h
Calls of active or inactive are those of the source. Rule as the data show it: active = GI50 up to about 1.1 µM and inactive = higher.
Result category, one only: class 1 = active, class 0 = inactive

// known answers, use as guide
{"compound": "CCOC(=O)c1c(CN2CCCC2)n(-c2ccccc2)c2cc(Br)c(O)cc12", "label value": "class 0"}
{"compound": "COc1ccc(C2c3cc(OC)c(OC)cc3C(Cc3ccc([N+](=O)[O-])cc3)C2c2ccc([N+](=O)[O-])cc2)cc1OC (stereo not given)", "label value": "class 0"}
{"compound": "Cc1c(/N=C/C=C/c2ccccc2)c(=O)n(-c2ccccc2)n1C", "label value": "class 0"}
{"compound": "CC(=O)Oc1c(C)c2c(c3ncccc13)OC(C)C2 (stereo not given)", "label value": "class 0"}
{"compound": "Oc1ccc(Cl)cc1Cc1cc(Cl)cc(Cc2cc(Cl)ccc2O)c1O", "label value": "class 1"}
{"compound": "COC(=O)C1C(=O)N(CCc2c[nH]c3ccccc23)C[C@@H]2CCC(=O)C[C@H]12 (stereo not given in full)", "label value": "class 0"}
{"compound": "Clc1ccc2c(NC3CCC(N4CCCCC4)CC3)ccnc2c1 (stereo not given)", "label value": "class 0"}
{"compound": "CN(C)/C=C1\\CCc2ccc([N+](=O)[O-])cc2C1=O", "label value": "class 0"}

Test call for this compound, please: COC(=O)c1ccc(OCc2ccc3nc(-c4ccccc4)c(Cl)nc3c2)cc1
class 0

Given O=C(Nc1sccc1S(=O)(=O)c1ccc(Cl)cc1)c1ccc(Cl)cc1Cl , state the outcome it received in this test.
class 0

Each recorded value in this set is attributed to ChEMBL document CHEMBL1201862.
